- experimental.protocol: Assessment of coloration of deodorant or antiperspirant formulations containing perfuming ingredients with or without Haloscent D
- Assay type: physicochemical
- Design: key: CO: color; COYE: yelow color; VSCOYE: very slight yellow color; SCOYE: slight yellow color; VCOYE: very yellow color; NC: no color; DECO: decoloration; CL: cloud; VCL: very cloud; WH: white; VCOBR: very brown color; COPI: ping color
- study.conditions: AP Stick, perfuming ingredient 0.5 wt %; 45° C.; after 7 days
measured.attribute: Coloration of antiperspirant stick

1) CCCCCOC(=O)c1ccccc1O [AMYLE SALICYLATE, PENTYL 2-HYDROXYBENZOATE]: NC
2) CC(C)=CCC/C(C)=C/CO [(E)-3,7-DIMETHYL-2,6-OCTADIEN-1-OL]: NC
3) CC(C)=CCCC(C)CCO (racemic) [(+−)-3,7-DIMETHYL-6-OCTEN-1-OL]: DECO

---

- experimental.protocol: Assessment of coloration of deodorant or antiperspirant formulations containing perfuming ingredients with or without Haloscent D
- Format: physicochemical
- Parameters: key: CO: color; COYE: yelow color; VSCOYE: very slight yellow color; SCOYE: slight yellow color; VCOYE: very yellow color; NC: no color; DECO: decoloration; CL: cloud; VCL: very cloud; WH: white; VCOBR: very brown color; COPI: ping color
- study.conditions: DEO STICK, perfuming ingredient 0.5 wt %; 45° C.; after 15 days
measured.attribute: Coloration of deodorant stick

1. 1-OXA-12-CYCLOHEXADECEN-2-ONE (A) + 1-OXA-13-CYCLOHEXADECEN-2-ONE [HABANOLIDE]: NC
2. (+−)-(3E)-3-methyl-4-(2,6,6-trimethyl-2-cyclohexen-1-yl)-3-buten-2-one (A) + (+−)-(1E)-1-(2,6,6-trimethyl-2-cyclohexen-1-yl)-1-penten-3-one (B) [ISORALDEINE 70P]: VCOYE
3. (+−)-(4E)-3-METHYL-4-CYCLOPENTADECEN-1-ONE (A) + (+−)-(5E)-3-METHYL-5-CYCLOPENTADECEN-1-ONE (B) + (+−)-(5Z)-3-METHYL-5-CYCLOPENTADECEN-1-ONE (C) [MUSCENONE DELTA]: NC
4. 1-(3,3-dimethyl-1-cyclohexen-1-yl)-4-penten-1-one (A) + 1-(5,5-dimethyl-1-cyclohexen-1-yl)-4-penten-1-one (B) [DYNASCONE]: VCOYE

---

- experimental.protocol: Assessment of coloration of deodorant or antiperspirant formulations containing perfuming ingredients with or without Haloscent D
- Format: physicochemical
- Design: key: CO: color; COYE: yelow color; VSCOYE: very slight yellow color; SCOYE: slight yellow color; VCOYE: very yellow color; NC: no color; DECO: decoloration; CL: cloud; VCL: very cloud; WH: white; VCOBR: very brown color; COPI: ping color
- study.conditions: DEO ROLL-ON, perfuming ingredient 0.5 wt %; 3° C.; after 15 days
measured.attribute: Coloration of deodorant roll-on

Known results for compounds:
1) CC(C)=CCCC(C)CCO (racemic) [(+−)-3,7-DIMETHYL-6-OCTEN-1-OL]: NC
2) CC(C)c1ccc2c(c1)OCC(=O)CO2 [CALONE]: NC
3) C=C(CC)CCCC(C)(C)O [2-METHYL-6-METHYLIDENEOCTAN-2-OL]: NC
4) c1ccc2[nH]ccc2c1 [2,3-BENZOPYRROLE]: NC
5) CCCCCOC(=O)c1ccccc1O [AMYLE SALICYLATE, PENTYL 2-HYDROXYBENZOATE]: VCL

Entry under review: CC(C)=CCC/C(C)=C/CO [(E)-3,7-DIMETHYL-2,6-OCTADIEN-1-OL] . Reported Coloration of deodorant roll-on? NC

Entry under review: CCC(=O)OCC(=O)O[C@@H](C)[C@@H]1CCCC(C)(C)C1 [ROMANDOLIDE] . Reported Coloration of deodorant roll-on? VCL

Entry under review: O=C1CC/C=C\CCCCCCCCCC1 [EXALTENONE, (Z)-4-CYCLOPENTADECEN-1-ONE] . Reported Coloration of deodorant roll-on? VCL
